Provenance of the data: paper PMC7235904

# method.notes: Antimicrobial residue concentration and depletion in muscle of treated pigs within the withdrawal period (LC-MS/MS or HPLC-FLD)
# Format: in vivo
# measurement.parameters: hindquarter muscle, intramuscular; withdrawal period Day 15, pig; read-out: Concentration in Hindquarters
readout.name: concentration at 15 day of withdrawal period (ng/g)
Numbers only here, please. The scale is ng/g.

Q: For CN(C)[C@@H]1C(O)=C(C(N)=O)C(=O)[C@@]2(O)C(O)=C3C(=O)c4c(O)cccc4[C@@](C)(O)[C@H]3[C@H](O)[C@@H]12 [Oxytetracycline, oxytetracycline] , what is its reported concentration at 15 day of withdrawal period?
A: 100
